// provenance: the supplement of paper PMC10567573

B1: NP_116010.1 (parent)
chain: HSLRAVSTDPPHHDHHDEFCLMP

Variants of: B1
METHOD: protein stability index of a GFP-peptide fusion (GPS, HEK-293T) (PSI 1-6); higher = more stable;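 also: lentivirally expressed fusion library, cells FACS-sorted into six equal-sized GFP/DsRed ratio bins, PSI computed from sequencing read fractions per bin weighted by bin number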
SETUP_CONDITIONS: c terminus: native
Rule: protein stability index of 3 or more gives satisfied; anything lower gives not satisfied.

[
  {
    "CHANGE": "E18Q",
    "CAT": "not satisfied"
  },
  {
    "CHANGE": "H13M",
    "CAT": "not satisfied"
  },
  {
    "CHANGE": "C20S",
    "CAT": "not satisfied"
  },
  {
    "CHANGE": "H15T",
    "CAT": "not satisfied"
  },
  {
    "CHANGE": "C20H",
    "CAT": "satisfied"
  },
  {
    "CHANGE": "D17Y",
    "CAT": "not satisfied"
  },
  {
    "CHANGE": "P11T",
    "CAT": "not satisfied"
  },
  {
    "CHANGE": "M22Q",
    "CAT": "not satisfied"
  },
  {
    "CHANGE": "P10R",
    "CAT": "not satisfied"
  },
  {
    "CHANGE": "D14F",
    "CAT": "not satisfied"
  },
  {
    "CHANGE": "L3S",
    "CAT": "satisfied"
  },
  {
    "CHANGE": "P23D",
    "CAT": "satisfied"
  },
  {
    "CHANGE": "E18Y",
    "CAT": "not satisfied"
  },
  {
    "CHANGE": "L21C",
    "CAT": "not satisfied"
  },
  {
    "CHANGE": "P23F",
    "CAT": "satisfied"
  },
  {
    "CHANGE": "C20F",
    "CAT": "satisfied"
  },
  {
    "CHANGE": "E18N",
    "CAT": "not satisfied"
  },
  {
    "CHANGE": "L3D",
    "CAT": "not satisfied"
  },
  {
    "CHANGE": "E18L",
    "CAT": "not satisfied"
  },
  {
    "CHANGE": "D17T",
    "CAT": "not satisfied"
  },
  {
    "CHANGE": "E18I",
    "CAT": "not satisfied"
  },
  {
    "CHANGE": "F19W",
    "CAT": "not satisfied"
  },
  {
    "CHANGE": "D17A",
    "CAT": "not satisfied"
  },
  {
    "CHANGE": "H12E",
    "CAT": "not satisfied"
  },
  {
    "CHANGE": "V6C",
    "CAT": "not satisfied"
  },
  {
    "CHANGE": "F19Q",
    "CAT": "not satisfied"
  },
  {
    "CHANGE": "C20V",
    "CAT": "satisfied"
  },
  {
    "CHANGE": "T8H",
    "CAT": "not satisfied"
  },
  {
    "CHANGE": "T8V",
    "CAT": "not satisfied"
  },
  {
    "CHANGE": "H16E",
    "CAT": "satisfied"
  },
  {
    "CHANGE": "P10I",
    "CAT": "not satisfied"
  },
  {
    "CHANGE": "H15Q",
    "CAT": "not satisfied"
  },
  {
    "CHANGE": "P10K",
    "CAT": "not satisfied"
  },
  {
    "CHANGE": "L21S",
    "CAT": "satisfied"
  },
  {
    "CHANGE": "V6Y",
    "CAT": "not satisfied"
  },
  {
    "CHANGE": "A5N",
    "CAT": "not satisfied"
  },
  {
    "CHANGE": "S2I",
    "CAT": "not satisfied"
  },
  {
    "CHANGE": "H12N",
    "CAT": "not satisfied"
  },
  {
    "CHANGE": "L3A",
    "CAT": "not satisfied"
  },
  {
    "CHANGE": "H1P",
    "CAT": "satisfied"
  },
  {
    "CHANGE": "P11D",
    "CAT": "not satisfied"
  },
  {
    "CHANGE": "D9N",
    "CAT": "not satisfied"
  },
  {
    "CHANGE": "H13A",
    "CAT": "not satisfied"
  },
  {
    "CHANGE": "L21T",
    "CAT": "satisfied"
  },
  {
    "CHANGE": "P10F",
    "CAT": "not satisfied"
  },
  {
    "CHANGE": "L3E",
    "CAT": "not satisfied"
  },
  {
    "CHANGE": "P23S",
    "CAT": "satisfied"
  },
  {
    "CHANGE": "V6F",
    "CAT": "not satisfied"
  },
  {
    "CHANGE": "R4K",
    "CAT": "not satisfied"
  },
  {
    "CHANGE": "C20A",
    "CAT": "not satisfied"
  },
  {
    "CHANGE": "H1W",
    "CAT": "not satisfied"
  },
  {
    "CHANGE": "S7D",
    "CAT": "not satisfied"
  }
]
